system: Trypanosoma brucei; experiment: Tested in vitro for trypanocidal activity against a drug sensitive strain of Trypanosoma brucei Lab 110 EATRO; type: functional, organism-based
pIC50: −log10 of the molar value.
quantity: pIC50

                                smiles_data       tested_system  readout_value
0  c1ccc(CCCNCCCCN(CCCNCCCc2ccccc2)CCCc2ccccc2)cc1  Trypanosoma brucei           6.66
1  c1ccc(CCCNCCCNCCCCNCCCN(CCCc2ccccc2)CCCc2ccccc2)cc1  Trypanosoma brucei           6.40
2  NCCCN(CCCCN(CCCN)CCCc1ccccc1)CCCc1ccccc1  Trypanosoma brucei           6.18
3    c1ccc(CCCNCCCNCCCCNCCCNCCCc2ccccc2)cc1  Trypanosoma brucei           6.09
4  NCCCN(CCCCN(CCCNCCCc1ccccc1)CCCc1ccccc1)CCCc1ccccc1  Trypanosoma brucei           6.57
5  c1ccc(CCCNCCCN(CCCCN(CCCc2ccccc2)CCCN(CCCc2ccccc2)CCCc2ccccc2)CCCc2ccccc2)cc1  Trypanosoma brucei           5.52
6  c1ccc(CCCN(CCCCN(CCCc2ccccc2)CCCN(CCCc2ccccc2)CCCc2ccccc2)CCCN(CCCc2ccccc2)CCCc2ccccc2)cc1  Trypanosoma brucei           4.66
7  NCCCCN(CCCNCCCc1ccccc1)CCCc1ccccc1.NCCCN(CCCCNCCCc1ccccc1)CCCc1ccccc1  Trypanosoma brucei           6.51
8  c1ccc(CCCNCCCN(CCCCN(CCCNCCCc2ccccc2)CCCc2ccccc2)CCCc2ccccc2)cc1  Trypanosoma brucei           6.92
